Cited source: PubChem BioAssay (NCATS)

- Test system: CRL-7250
- assay_info: Cytotoxic Profiling of Annotated Libraries Using Quantitative High-Throughput Screening (AID 1296008); note: % is set by controls: 0 for no effect and ±100 for the full control effect; nearly all actives have a fitted effect of over 60% in size
- particulars: Five cell lines viability, CellTiter-Glo ATP luminescence, 48-72 h; active compounds read low
- Method: Cell-based phenotypic screening is a commonly used approach to discover biological pathways, novel drug targets, chemical probes and high-quality hit-to-lead molecules. […] A pintool (Kalypsys) was used to transfer 23 nL of compound solution to the 1536-well assay plates. […] Plates were left at room temperature for 10 min before imaging the ATP-coupled luminescence using a ViewLux microplate imager (PerkinElmer, Waltham, MA).
Results filed as inconclusive are left out.
recorded_metric: max response (%)
Write it as a number; the unit % goes unstated.

Req: // lookup max response for COc1cc(O)cc2c1C(=O)OC(C)C2 (configuration not stated)
Resp: 4.54

Req: Also, CC1CC(O)/C=C/C(O)/C=C\C(=O)O1 (configuration not stated) please.
Resp: 0.731

Req: Quick one: C=C1C(=O)O[C@@H]2/C=C(\C)CC/C=C(\C(=O)O[C@@H]3O[C@H](CO)[C@@H](O)[C@H](O)[C@H]3O)CC[C@@H]12
Resp: 4.73

Req: How about this compound: C/C=C(\C)C(=O)OC[C@H]1O[C@@H](O[C@H]2[C@@H](O[C@H]3O[C@H](COC(=O)/C(C)=C/C)[C@@H](O)[C@H](O)[C@H]3O[C@@H]3O[C@H](CO)[C@@H](O)[C@H](OC(=O)/C(C)=C/C)[C@H]3O)O[C@H](COC(=O)/C(C)=C/C)[C@@H](O)[C@@H]2O)[C@H](O)[C@@H](O)[C@@H]1O
Resp: -2.42

Req: # iterate: CC1(O)CCC2C(C3C1CCC3(C)O)C2(C)C (configuration not stated)
Resp: 3.06

Req: Thanks! And CC(CC(C)O[C@@H]1O[C@H](CO)[C@@H](O)[C@H](O)[C@H]1O)OC(=O)/C=C/c1ccc(O)cc1 (some centres not stated) ?
Resp: 2.71

Req: Entry to check: CN(C)CC(c1ccc(O)cc1)C1(O)CCCCC1 (configuration not stated)
Resp: 2.79

Req: // query: FC(F)(F)Oc1ccc(-c2ccc3nnc(C(F)(F)F)n3c2)cc1
Resp: -1.14

Req: C/C=C/C=C/C=C/C(=O)OC1C=C2C(O)OC(=O)[C@]2(O)[C@@]2(C)CCCC(C)(C)[C@H]12 (some centres not stated) ?
Resp: -0.551

Req: Consider next the compound Cc1nc(-c2cccnc2)sc1C(=O)Nc1ccccc1-c1cn2c(CN3CCOCC3)csc2n1 in the same way.
Resp: -2.14

Req: Item: C[C@@H]1O[C@@H](O[C@H]2[C@@H]3C=CO[C@@H](O[C@@H]4O[C@H](CO)[C@@H](O)[C@H](O)[C@H]4O)[C@@H]3[C@@]3(CO)O[C@@H]23)[C@H](O)[C@H](O)[C@H]1OC(=O)/C=C/c1ccc(O)cc1
Resp: -9.97

Req: Now consider Cc1oc2nc3c(c(NC(=O)CN4CCCC4=O)c2c1C)CCCC3 .
Resp: 3.82

Req: What do you have for C/C(=C\C1CCC(C)C2CCC3(C)OC123)C(=O)O (configuration not stated) ?
Resp: -0.564

Req: Now consider Cc1cc(CNC(=O)c2cc(C(=O)NCc3ccc(F)c(C)c3)ncn2)ccc1F and answer again.
Resp: 4.78

Req: Record: O=C(OCC(O)CO[C@@H]1O[C@H](C(=O)O)[C@@H](O)[C@H](O)[C@H]1O)c1ccccc1 (some centres not stated)
Resp: 4.18

Req: Next: CC1=CC2=C(C)C(=O)[C@](C)(O)[C@H](O)C2=CO1
Resp: -8.59

Req: Let us now turn to C=C1C[C@H](O)[C@@H](O)[C@@]2(C)C1[C@@H](O)[C@H]1OC(=O)C3[C@@H](C)[C@@H](O)[C@H](O)C2[C@]31C (some centres not stated)
Resp: -9.79
